Taken from ChEMBL document CHEMBL2429832.

The following are reported pKi results, target or system Alpha-2B adrenergic receptor (Homo sapiens, UniProt P18089).
pKi: −log10 of the molar value.
MEASURE: pKi

>>> df
                                   compound                               test_system  readout_number
0  C1C2C3CC4C2C2C1C3[C@H](NCC13C5C6C7C5C1C7C63)C42 (stereo partly drawn)  Alpha-2B adrenergic receptor (Homo sapiens, UniProt P18089)            6.00
1  C1CCC(CN[C@H]2C3C4CC5C6C4CC3C6C52)CC1 (stereo partly drawn)  Alpha-2B adrenergic receptor (Homo sapiens, UniProt P18089)            5.60
2  CN(CCc1ccccc1)[C@H]1C2C3CC4C5C3CC2C5C41 (stereo partly drawn)  Alpha-2B adrenergic receptor (Homo sapiens, UniProt P18089)            5.89

----------
target: UniProt Q01959
Sequence (Q01959 whole entry): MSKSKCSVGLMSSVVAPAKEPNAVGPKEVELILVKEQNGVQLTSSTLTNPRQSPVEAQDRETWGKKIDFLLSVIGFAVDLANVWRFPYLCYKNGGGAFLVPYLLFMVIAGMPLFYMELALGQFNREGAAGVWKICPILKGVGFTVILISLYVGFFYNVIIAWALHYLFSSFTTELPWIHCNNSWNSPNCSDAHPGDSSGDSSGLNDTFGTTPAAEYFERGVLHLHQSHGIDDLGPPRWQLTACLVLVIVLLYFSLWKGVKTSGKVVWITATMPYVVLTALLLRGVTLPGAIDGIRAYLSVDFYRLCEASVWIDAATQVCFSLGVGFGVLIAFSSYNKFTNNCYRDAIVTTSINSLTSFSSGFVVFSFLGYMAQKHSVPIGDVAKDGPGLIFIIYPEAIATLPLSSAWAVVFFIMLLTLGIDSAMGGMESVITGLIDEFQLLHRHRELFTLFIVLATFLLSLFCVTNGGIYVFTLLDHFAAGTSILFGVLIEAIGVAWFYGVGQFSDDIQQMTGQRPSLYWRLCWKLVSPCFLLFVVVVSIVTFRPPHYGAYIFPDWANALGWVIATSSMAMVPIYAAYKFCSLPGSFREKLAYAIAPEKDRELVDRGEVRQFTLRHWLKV
pKi: −log10 of the molar value.
MEASURE: pKi

In [3]: df
Out[3]:
                                   compound  value_modifier  readout_number
0  c1ccc(CCN[C@H]2C3C4CC5C6C4CC3C6C52)cc1 (some centres undefined)               =            5.70
1  CN(Cc1ccccc1)[C@H]1C2C3CC4C5C3CC2C5C41 (some centres undefined)               <            5.00
2  CN(CCc1ccccc1)[C@H]1C2C3CC4C2C(=O)C2C4C3C21 (some centres undefined)               =            5.89
3  Fc1cccc(CCCN[C@H]2C3C4CC5C6C4CC3C6C52)c1 (some centres undefined)               <            5.00

----------
The following are reported Ki results, target or system Muscarinic acetylcholine receptor M5 (Homo sapiens, UniProt P08912).
MEASURE: Ki (nM)

>>> df
                                   compound  readout_number
0  CN(Cc1ccccc1)[C@H]1C2C3CC4C2C(=O)C2C4C3C21 (stereo partly specified)            1990
1  c1ccc(CCN[C@H]2C3C4CC5C6C4CC3C6C52)cc1 (stereo partly specified)            2000
2  c1ccc(CCN[C@H]2C3C4CC5C6C4CC3C6C52)nc1 (stereo partly specified)            5800
3  C1CCC(CN[C@H]2C3C4CC5C6C4CC3C6C52)CC1 (stereo partly specified)            3000
4  CN(CCCc1cccc(F)c1)[C@H]1C2C3CC4C2C(=O)C2C4C3C21 (stereo partly specified)            2910
5  C1C2C3CC4C2C2C1C3[C@H](NCC13C5C6C7C5C1C7C63)C42 (stereo partly specified)             595

----------
Attribute: Ki
target: Histamine H2 receptor (Homo sapiens, UniProt P25021)
Sequence (P25021 whole entry): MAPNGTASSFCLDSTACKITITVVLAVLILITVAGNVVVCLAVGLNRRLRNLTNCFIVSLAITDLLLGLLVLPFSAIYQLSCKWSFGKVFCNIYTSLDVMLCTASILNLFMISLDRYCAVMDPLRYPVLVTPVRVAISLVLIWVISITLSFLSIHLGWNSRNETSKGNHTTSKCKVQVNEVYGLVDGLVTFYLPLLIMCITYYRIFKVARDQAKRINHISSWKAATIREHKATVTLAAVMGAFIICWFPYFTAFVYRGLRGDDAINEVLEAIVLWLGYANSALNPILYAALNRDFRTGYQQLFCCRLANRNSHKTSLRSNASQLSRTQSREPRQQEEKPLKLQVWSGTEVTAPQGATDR
MEASURE: Ki (µM)

>>> df
                                   molecule                               test_system  unit_label  readout_number
0  C1C2C3CC4C2C2C1C3[C@H](NCC13C5C6C7C5C1C7C63)C42 (stereo partly drawn)  Histamine H2 receptor (Homo sapiens, UniProt P25021)          µM            6.27
1  COc1ccc(CN(C)[C@H]2C3C4CC5C6C4CC3C6C52)cc1OC (stereo partly drawn)  Histamine H2 receptor (Homo sapiens, UniProt P25021)          µM            1.87
2  c1ccc(CN[C@H]2C3C4CC5C6C4CC3C6C52)cc1 (stereo partly drawn)  Histamine H2 receptor (Homo sapiens, UniProt P25021)          µM            3.47
